test system: Amaranthus retoflexus (AMARE); test: Pre-emergence Test (glasshouse, percentage damage to the plant); format: in vivo; conditions: 1000 g/ha unless otherwise stated, five-point scale

- Molecule: "CCn1c(C)c(-c2cncc(Cl)c2)c(=O)c(C(=O)O)c1-c1ccc(Cl)c(Cl)c1 [Compound 23]"
  percentage damage to the plant, AMARE: "1 (1=0-20%)"
- Molecule: "CCn1c(C)c(-c2ccc(C(F)(F)F)c(Cl)c2)c(=O)c(C(=O)O)c1-c1ccc(Cl)cc1 [Compound 170]"
  percentage damage to the plant, AMARE: "1 (1=0-20%)"
- Molecule: "CCn1c(C)c(-c2cccnc2F)c(=O)c(C(=O)O)c1-c1ccc(Cl)c(Cl)c1 [Compound 6]"
  percentage damage to the plant, AMARE: "4 (4=61-80%)"
- Molecule: "CCn1c(C)c(-c2ccccc2)c(=O)c(C(=O)O)c1-c1ccc(Cl)c(Cl)c1 [Compound 24]"
  percentage damage to the plant, AMARE: "1 (1=0-20%)"
- Molecule: "CCNC(=O)c1cc(-c2c(C)n(CC)c(-c3ccc(Cl)c(Cl)c3)c(C(=O)O)c2=O)ccc1Cl [Compound 72]"
  percentage damage to the plant, AMARE: "1 (1=0-20%)"
- Molecule: "CCn1c(C)c(-c2cc(C)cc(C(F)(F)F)c2)c(=O)c(C(=O)O)c1-c1ccc(Cl)c(Cl)c1 [Compound 67]"
  percentage damage to the plant, AMARE: "1 (1=0-20%)"
- Molecule: "CCn1c(C)c(-c2cncc(OC)c2)c(=O)c(C(=O)O)c1-c1ccc(Cl)c(Cl)c1 [Compound 61]"
  percentage damage to the plant, AMARE: "1 (1=0-20%)"
- Molecule: "CCn1c(C)c(-c2ccc(F)nc2)c(=O)c(C(=O)O)c1-c1ccc(Cl)c(Cl)c1 [Compound 8]"
  percentage damage to the plant, AMARE: "3 (3=41-60%)"
